molecular target: 1-deoxy-D-xylulose 5-phosphate reductoisomerase (Mycobacterium tuberculosis) (UniProt P9WNS1); test: Inhibition of Mycobacterium tuberculosis DXR assessed as reduction of 1-deoxy-D-xylulose 5-phosphate into 2-C-methyl-D-erythritol-4-phosphate at 100 uM measured for every 5 secs upto 500 secs by spectrophotometry analysis
Reported metric: inhibition (%)
Express the result in % but write the number alone.

>  <Compound>
O=c1oc2cccnc2n1CCCP(=O)(O)O

>  <inhibition, %>
11

$$$$

In the following, a different compound is considered.
Asked: // inhibition lookup, key: O=c1oc2cc(Br)cnc2n1CCCP(=O)(O)O
Given back: 7

---

The entries below come with measured inhibition values attached.
Molecular target: 1-deoxy-D-xylulose 5-phosphate reductoisomerase (Mycobacterium tuberculosis)
Sequence (whole entry): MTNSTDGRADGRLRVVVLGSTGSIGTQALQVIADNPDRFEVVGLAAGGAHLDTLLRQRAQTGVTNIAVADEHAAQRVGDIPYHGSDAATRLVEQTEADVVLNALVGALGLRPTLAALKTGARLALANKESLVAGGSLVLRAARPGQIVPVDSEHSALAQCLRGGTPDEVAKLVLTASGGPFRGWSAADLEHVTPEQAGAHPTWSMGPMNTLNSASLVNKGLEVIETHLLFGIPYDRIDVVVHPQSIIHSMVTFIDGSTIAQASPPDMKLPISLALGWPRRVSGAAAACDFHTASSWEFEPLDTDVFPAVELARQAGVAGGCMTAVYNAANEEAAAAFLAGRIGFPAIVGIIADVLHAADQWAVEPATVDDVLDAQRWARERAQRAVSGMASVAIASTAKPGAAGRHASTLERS
Experiment: Inhibition of Mycobacterium tuberculosis DXR assessed as reduction of 1-deoxy-D-xylulose 5-phosphate into 2-C-methyl-D-erythritol-4-phosphate at 100 uM measured for every 5 secs upto 500 secs by spectrophotometry analysis
// units = %; emit number, no label

>  <Compound>
O=C1NC(=O)C(CCP(=O)(O)O)N1 (configuration not stated)

>  <inhibition [%]>
8

$$$$
>  <Compound>
CC(=O)N(O)CCCS(=O)(=O)O

>  <inhibition [%]>
36

$$$$
>  <Compound>
CC(=O)N(O)CCCc1nnn[nH]1

>  <inhibition [%]>
0

$$$$
>  <Compound>
O=P(O)(O)CCc1ccc(O)c(O)c1

>  <inhibition [%]>
78

$$$$
>  <Compound>
CC(=O)N(O)CCCC(=O)O

>  <inhibition [%]>
0

$$$$

Asked: Bench note: what inhibition did CC(=O)N(O)CCc1c(C(=O)O)noc1C show?
Given back: 41

Asked: Follow-up entry: CC(=O)N(O)CCCC(=O)NS(C)(=O)=O
Given back: 29
